# System: LOX IMVI melanoma
# assayComment: NCI-60 one-dose screen, 48 h (100 = growth as untreated, 0 = no growth, -100 = all killed)
# conditionParameters: 10 µM unless noted
About 83,000 compounds went through this panel and 20% of them were active in at least one assay; those are over-represented in the sample as a whole.
Assign a class from recorded growth; defined classes: bucket 1 = under -50%, bucket 2 = from -50% up to 30%, bucket 3 = 30% and over

>>> class("COC(=O)N[C@H]1CCc2c(Cl)c(OC)c(OC)c(OC)c2-c2ccc(SC)c(=O)cc21")
"bucket 2"
>>> class("CCc1c2c(nc3ccc(OCc4ccc(B(O)O)cc4)cc13)-c1cc3c(c(=O)n1C2)COC(=O)[C@]3(O)CC")
"bucket 2"
>>> class("Cc1cc2c(C(=O)NCC#N)cccc2n1-c1nc2c(c(NCc3ccccc3)n1)CCCC2")
"bucket 1"
>>> class("O=C1Nc2cc(-c3cccc(O)c3)ccc2/C1=C/c1ccc[nH]1")
"bucket 2"
>>> class("COc1cc(CC(=O)c2ccc(O)c(OC)c2)ccc1O")
"bucket 3"
>>> class("COc1ccc(/C=C2\\Oc3cc(OCCCCCN4CCCCC4)ccc3C2=O)cc1OC")
"bucket 3"
>>> class("N/C(=N\\C(N)=N\\c1nc2ccccc2s1)c1cccc(Cl)c1")
"bucket 3"
>>> class("C/C(=N\\NC(=O)CSc1nc2ccccc2c(=O)n1CCc1ccc(S(N)(=O)=O)cc1)c1ccccn1")
"bucket 2"
>>> class("COc1cccc(-c2cc(C(=O)Nc3ccc(/C=C/c4ccc(OC5CCN(C)CC5)cc4)cc3)ccc2OC)c1")
"bucket 1"
>>> class("C=C(C)[C@@H]1CC[C@]2(C(=O)N3CCN(C)CC3)CC[C@]3(C)[C@H](CC[C@@H]4[C@@]5(C)C/C(=C/c6cccnc6)C(=O)C(C)(C)[C@@H]5CC[C@]43C)[C@@H]12")
"bucket 3"
>>> class("CCOc1ccc(Nc2nc(-c3ccc4c(c3)NC(=O)CO4)cs2)cc1")
"bucket 3"
>>> class("NC(=S)N1N=C(c2ccccc2)CC1c1cn(-c2ccccc2)nc1-c1ccc(OCc2ccccc2)cc1 (centres undefined)")
"bucket 3"
>>> class("C=C1C(=O)O[C@H]2[C@H]1CC/C(COC(=O)NCc1c[nH]c3ccc(F)cc13)=C\\CC[C@@]1(C)O[C@@H]21")
"bucket 1"
>>> class("CN1[C@@H]2CC[C@H]1/C(=C\\c1ccccc1)C(=O)/C2=C/c1ccccc1")
"bucket 2"
>>> class("C/C=C(\\C)C(=O)NC1=CC[C@@]2(C)C(=CCC3C2CC[C@@]2(C)C3CC[C@@H]2C(C)N(C)C)C1=O (some centres undefined)")
"bucket 1"
>>> class("Cc1ccc(CNc2c3ccccc3nc3cc(NC(=O)CCN4CCCC4)ccc23)cc1")
"bucket 1"
>>> class("O=C(CCN1CCCC1)Nc1ccc2c(NCc3ccccc3)c3ccccc3nc2c1")
"bucket 2"
>>> class("COc1cc(-c2n/c(=C\\c3c(O)[nH]c4ccc(Cl)cc34)cc3c2=Nc2ccccc2-3)ccc1F")
"bucket 2"
